system: HSP-90 (heat shock protein 90); assay: Determination of affinity for HSP-90 (elution from purine affinity column, SDS-PAGE densitometry); format: binding; design: key: +++: very high; ++: high; +: moderate; conditions: elution of HSP-90 from purine affinity column with 20, 100 and 500 μM test compound
measured-property: relative binding affinity to HSP-90

Examples with answers:
structure-smiles	measured-property	result
Cc1cn(-c2ccc(C(N)=O)c(NC3CCN(C(=O)CN(C)C)CC3)c2)c2c1C(=O)CC(C)(C)C2	relative binding affinity to HSP-90	++
Cc1cc2c(n1-c1ccc(C(N)=O)cc1-c1ccsc1)CC(C)(C)CC2=O	relative binding affinity to HSP-90	+
C=CCNc1cc(-n2ccc3c2CCCC3=O)ccc1C(N)=O	relative binding affinity to HSP-90	++
CCCCOc1cc(C(N)=O)ccc1-n1cc(C)c2c1CC(C)(C)CC2=O	relative binding affinity to HSP-90	++

Kindly consider the entry below.
Task: // returns reported relative binding affinity to HSP-90 for input COCCNc1cc(-n2nc(C)c3c2CC(C)(C)CC3=O)ccc1C(N)=O
Result: +++
